target: T1, human Complement Factor D (CFD), purified from human serum (human, UniProt P00746 26-253); experiment: SPR MX96, mAbs amine-coupled, CFD injected
T1 construct: serum purified (CompTech A136); also called serum purified CFD; hCFD-Comptech
T1 sequence (P00746 26-253): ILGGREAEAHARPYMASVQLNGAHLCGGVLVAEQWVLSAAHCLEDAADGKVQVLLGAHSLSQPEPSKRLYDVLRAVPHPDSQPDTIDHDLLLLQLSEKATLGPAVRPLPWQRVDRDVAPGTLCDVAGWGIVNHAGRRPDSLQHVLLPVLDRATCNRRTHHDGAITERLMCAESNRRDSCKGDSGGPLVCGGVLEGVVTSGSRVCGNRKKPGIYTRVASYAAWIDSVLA
Known pKd of a selection of binders
Keep it numeric: pKd is minus log10 of the concentration in mol/L.

KCD015 (antibody, V domains shown) VH: EVQLQQSGAELVKPGASVKLSCTASGFNIKDTYMHWVKQRPEQGLEWIGRIDPANGYTEYDPKFQGKATITADTSSNTAYLQLSSLTSEDSAAYYCTSAMEFWGQGTSVTVSS VL: QIVLTQSPAILSASPGEKVTMTCSASSSVSYIYWYQQKPRSSPRLLIYDTSNLASGVPVRFSGSGSGTSYSLTISRMEAEDAATYYCQQWSSYPFTFGGGTKLEVK | 8.21
KCD114 (antibody, V domains shown) VH: EVQLQQSGPELVKPGASVKISCKASGYSFTAYYMNWVKQSPEKSLEWIGDINPSTGGTTYNQNFKAKATLTVDKSSSTAYMHLKSLTSEDSAVYYCATTYYSGNSYVGFAYWGQGTLVTVSA VL: DIVMTQSHKFMSTSVGDRVSITCKASQDVSTAVAWYQQKPGQSPKLLIFWASTRHTGVPDRFTGSGSGTDYTLTISSVQAEDLALYYCQQHYSTPWTFGGGTKLEIK | 8.09

Identify measured pKd corresponding to KCD056 (antibody, V domains shown) VH: EVKLVESGGGLVQPGGSLKVSCAASGFTFSTYTMSWVRQTPEKRLEWVAYITNGGGSTYYPDTEKGRFTISRDNAKNTLYLQMSSLKSEDTAMYYCVRHDYYAMDYWGQGTSVTVSS VL: DIQMTQSPSSLSASLGGKVTITCKASQDINKYIAWYQHKPGKGPRLLIHYTSTLQPGIPSRFSGSGSGRDYSFSISNLEPEDIATYYCLQYDNLLYTFGGGTTLEIK
7.22

Value source: patent US20180334496A1
